Kindly state protein stability index for each of the entries shown.
Assay Notes: protein stability index of a GFP-peptide fusion (GPS, HEK-293T) (PSI 1-6); higher = more stable;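 note: 24-mer peptide tiles fused after GFP, lentivirally expressed, FACS-sorted into six equal bins by GFP/DsRed ratio, decoded by Illumina sequencing, PSI is the read-weighted mean bin number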
Particulars: treatment: MLN4924 1 uM, 8 h; c terminus: a fixed tail appended
Write the value as a bare number.

Req: Tell me protein stability index reported for LLRPPVAAFVRAQADLLAHLVPEP [DNAAF3]
Resp: 2.33

Req: Tell me protein stability index reported for PFTPLHIKVKPKRVGIFLDYEAGT [TRIM39]
Resp: 2.67

Req: Tell me protein stability index reported for HQPVVRQCGPQTGLQSPGTLQPPE [TBX5]
Resp: 4.63

Req: Tell me protein stability index reported for KRCIVILREIPETTPIEEVKGLFK [LARP4]
Resp: 1.93

Req: Tell me protein stability index reported for TYIPENNARGASIFSVTALDPDSK [PCDHGA10]
Resp: 4.62

====

Assay Notes: protein stability index of a GFP-peptide fusion (GPS, HEK-293T) (PSI 1-6); higher = more stable
Particulars: treatment: DMSO; c terminus: a fixed tail appended
Metric: protein stability index
Write the value as a bare number.

Req: Tell me protein stability index reported for ENLDNDTETDSLVSAQRERPRRRD [DVL3]
Resp: 5.51

Req: Tell me protein stability index reported for KSSILTRAGEQRKRSQSMKSYPSS [CLCN6]
Resp: 4.46

Req: Tell me protein stability index reported for CPCCFGRDCLVLNQGYLSEAGASL [PI4K2A]
Resp: 2.44

Req: Tell me protein stability index reported for EGDLPQMEVGSGSRELSLRPSRSG [EID1]
Resp: 5.07

Req: Tell me protein stability index reported for WGCDLGVVTRVVTGVYPRCLHASQ [BRF1]
Resp: 2.89

Req: Tell me protein stability index reported for FAQALGCVLYACFILGRLCVPVFA [SOAT2]
Resp: 3.03

Req: Tell me protein stability index reported for LALGPGESLPHRLSCLGQQQQEPP [PLAGL1]
Resp: 4.14

Req: Tell me protein stability index reported for PRVRELLLDALSPEQLVLTLLEAE [ESR2]
Resp: 2.22

Req: Tell me protein stability index reported for QDFPVKKRKKLSTWKQELLKLMDR [ZNF75A]
Resp: 2.5

====

Kindly state protein stability index for each of the entries shown.
Assay Notes: protein stability index of a GFP-peptide fusion (GPS, HEK-293T) (PSI 1-6); higher = more stable
Particulars: treatment: DMSO; c terminus: a fixed tail appended
Write the value as a bare number.

Req: Tell me protein stability index reported for RADFVLAANSYDLAIKAITSSAKV [FKBP8]
Resp: 2.72

Req: Tell me protein stability index reported for KAAVSHWQQQSYLDSGIHSGATTT [CTNNB1]
Resp: 3.69

Req: Tell me protein stability index reported for LASLQDGAAESPYGHPAGIDYKTT [RAB40B]
Resp: 4.4

Req: Tell me protein stability index reported for VTVPSMLSRLLSRKRAVPCGACLT [OR3A1]
Resp: 2.39

Req: Tell me protein stability index reported for EPGGYDSSSTLMSSELETTSFFDS [DVL3]
Resp: 4.96

Req: Tell me protein stability index reported for TPEELEEEIPVVICAAAGRMGATM [GLT8D2]
Resp: 4.25

Req: Tell me protein stability index reported for PLAVEEDASSSTSTSSSFPSSFPS [MAGEA10]
Resp: 5.31

Req: Tell me protein stability index reported for CSSKRSSYPVMGFEFQVRVCDSCY [WDFY1]
Resp: 2.66

Req: Tell me protein stability index reported for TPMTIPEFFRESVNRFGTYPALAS [ACSBG2]
Resp: 2.6

Req: Tell me protein stability index reported for DTNLGRLEDGQTPLHLSALRDDVL [ASB7]
Resp: 4.59

Req: Tell me protein stability index reported for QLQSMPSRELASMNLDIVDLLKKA [RHOBTB3]
Resp: 3.46

Req: Tell me protein stability index reported for SSSSSSQAPGQPPGNQAEHGAVTV [ZBTB22]
Resp: 5.12

Req: Tell me protein stability index reported for LLLVAKMSVGHLRLLSHDQVAMPY [JAGN1]
Resp: 3.06

Req: Tell me protein stability index reported for ILKRRYYRQHCTLELGSYIKDLSV [CTDNEP1]
Resp: 2.46

Req: Tell me protein stability index reported for VAGGLVACRVTELQQQPLCTSVNT [LRRC59]
Resp: 2.39

Req: Tell me protein stability index reported for KQYDQQFPDGDDEFDSPHEDIVFE [STX11]
Resp: 5.18

Req: Tell me protein stability index reported for RPRKLYKHSSTSSRIAKGGVDHTK [BTBD10]
Resp: 4.06

Req: Tell me protein stability index reported for ILHGTRGELLLDVAWHPVRPIIAS [RBBP5]
Resp: 2.51

Req: Tell me protein stability index reported for `WIGLFLVATGSQQSLAQPLPGNTT`
Resp: 2.93

Req: Tell me protein stability index reported for LGSPQHSPSTRGSPNRSLPSPGVL [ATF4]
Resp: 4.45

Req: Tell me protein stability index reported for KLMKNIRFPLMTPQELINYVQTVD [KLHL13]
Resp: 2.87

Req: Tell me protein stability index reported for AGGDATENFEDVGHSTDAREMSKT [CYB5A]
Resp: 5.44

Req: Tell me protein stability index reported for TSTSSSITSSIPDTERLDDFHLSI [DVL3]
Resp: 3.84

Req: Tell me protein stability index reported for LCSFLLLLLLQVSSSYAGQFRVIG [MOG]
Resp: 3.39

Req: Tell me protein stability index reported for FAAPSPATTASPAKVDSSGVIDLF [SNAP91]
Resp: 2.93

Req: Tell me protein stability index reported for EALLKLLAGLTRPDVRPPLGRGLV [SEPHS2]
Resp: 2.22

Req: Tell me protein stability index reported for ATETQALAQRTQQDSTRTVGERLQ [TEKT4]
Resp: 5.14

Req: Tell me protein stability index reported for QVAMPYQWEYPYLLSILPSLLGLL [JAGN1]
Resp: 2.8

Req: Tell me protein stability index reported for KFSQNSHLIKHRRTHTGEQPYTCS [ZNF75A]
Resp: 2.93

Req: Tell me protein stability index reported for LDVIERDLHRQFPFHEMFVSRGGH [TBC1D10A]
Resp: 2.98

Req: Tell me protein stability index reported for RIFRLPNNWYYISPRLTFQCLEDL [SLA]
Resp: 2.53

Req: Tell me protein stability index reported for PWTKEEDQKVIELVKKYGTKQWTL [MYBL2]
Resp: 2.61

Req: Tell me protein stability index reported for PAFIIVKLSPLRDRLVVTECQLTH [ZSWIM9]
Resp: 3.33

Req: Tell me protein stability index reported for HDEDIKTTNVKSASRQKTSLGIEL [ZNF396]
Resp: 4.5

Req: Tell me protein stability index reported for EELNNGEPQTEHQQESESEIDSVP [MIA2]
Resp: 5.6

Req: Tell me protein stability index reported for ACGSSSYVASIVDGGESRSEKGDS [RBMY1A1]
Resp: 5.22

Req: Tell me protein stability index reported for RAGSQVVATTARHSAAYRADPLRV [FUNDC2]
Resp: 3.59

====

Assay Notes: protein stability index of a GFP-peptide fusion (GPS, HEK-293T) (PSI 1-6); higher = more stable
Particulars: treatment: DMSO; c terminus: a fixed tail appended
Metric: protein stability index
Write the value as a bare number.

Req: Tell me protein stability index reported for KKAFLNQAQIELRLLELMNQHDTE [DYRK1B]
Resp: 3.05

Req: Tell me protein stability index reported for AGPDSWGSDAEQSTSGQPYPTSDQ [LCOR]
Resp: 5.48

Req: Tell me protein stability index reported for ENQLVRKQDVLGPSTTPPAHSSSN [SASS6]
Resp: 5.19

Req: Tell me protein stability index reported for RMTISLTVILIESTNEITYGLPIM [CLCN6]
Resp: 2.98

Req: Tell me protein stability index reported for FNYRYFEVEEADGNKQWWFGGGCD [CPOX]
Resp: 2.48

Req: Tell me protein stability index reported for DGEILFSLLQKVSPVAHKHLSRQK [TBC1D10A]
Resp: 2.36

Req: Tell me protein stability index reported for MEALAAETNLLLAQKQRLERALDA [TEKT4]
Resp: 4.13

Req: Tell me protein stability index reported for EVEWTEDLALDLGPQSRELTLKVL [C2CD2L]
Resp: 3.44

Req: Tell me protein stability index reported for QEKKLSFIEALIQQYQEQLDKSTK [TRIM63]
Resp: 2.82

Req: Tell me protein stability index reported for QAQPAIPRPNRLFLRQLRASHLGN [C2CD2L]
Resp: 3.09

Req: Tell me protein stability index reported for TSTFEATSEGTLELQQRNPKAERL [ZNF232]
Resp: 5.2

Req: Tell me protein stability index reported for VASMVLGECRQMSSSSQIGNDSFQ [CLCN6]
Resp: 2.87

Req: Tell me protein stability index reported for NLLSPLLTGTESPFDLEQQWQDLM [NFE2L1]
Resp: 3.12

Req: Tell me protein stability index reported for DLKDDGNMMKVLRGHQNWVYSCAF [WSB1]
Resp: 2.3

Req: Tell me protein stability index reported for NEDEDLGPCEGPSKEDKDLDSSEG [SPANXN3]
Resp: 5.66

Req: Tell me protein stability index reported for KQNEKLNNQEEETEFKELDGLREA [CCDC89]
Resp: 5.51

Req: Tell me protein stability index reported for VEEVDMAEEFEQPTLSCEKYLTYD [ELOA2]
Resp: 5.09

Req: Tell me protein stability index reported for KQYVLLSILLCLLASGLVVFFLFP [TMEM106C]
Resp: 2.43

Req: Tell me protein stability index reported for PSLGDSLESIPSLSQSPEPGRRGD [RTN2]
Resp: 5.32

Req: Tell me protein stability index reported for RFTGTMDAFVKIVRHEGTRTLWSG [SLC25A39]
Resp: 2.53

Req: Tell me protein stability index reported for DDMPIGRNVLELNDVRQSANYTCV [PTPRD]
Resp: 3.72

Req: Tell me protein stability index reported for HFPASPFWSVMFFLMLINLGLGSM [SLC6A17]
Resp: 3.67

Req: Tell me protein stability index reported for GADYPVDGLPDLGHAQDLMDGLPP [CTNNB1]
Resp: 4.95

Req: Tell me protein stability index reported for RLNLTNTKQNFFSQTPILQALQHV [INTS3]
Resp: 2.23

Req: Tell me protein stability index reported for MSVILSMDNNRNLDLDSIIDEVRT [KRT71]
Resp: 2.61

Req: Tell me protein stability index reported for ACDSKLTFDAITTIRGEVMFFKDR [MMP1]
Resp: 2.45

Req: Tell me protein stability index reported for RKAITEAANAARHVAPEIRELLTQ [PWWP2B]
Resp: 4.06

Req: Tell me protein stability index reported for FADGVLSGEELHELFHTIDTHNTN [NECAB1]
Resp: 3.12

Req: Tell me protein stability index reported for IRHQRIHTGEKPYTCHECGDSFSH [ZNF263]
Resp: 2.62

Req: Tell me protein stability index reported for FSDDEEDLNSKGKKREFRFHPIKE [INTS3]
Resp: 3.48

Req: Tell me protein stability index reported for CASKYGRDWERYTAAVPYRLLPGI [DHCR7]
Resp: 2.05

Req: Tell me protein stability index reported for LSGVEEELQRTKQEVLSLRRENST [SASS6]
Resp: 5.07

Req: Tell me protein stability index reported for ATECEFVGSLPVIVVGRLKVALEP [LPCAT4]
Resp: 2.36

Req: Tell me protein stability index reported for NEPSQAETAVEGDPSGVSGATVGR [C18orf25]
Resp: 5.66

Req: Tell me protein stability index reported for YREESDSLGQDLRRLRQELLKTEA [DAPK3]
Resp: 3.85

Req: Tell me protein stability index reported for TGGLLPIKRTIRVLDVNNQSFREQ [NET1]
Resp: 2.92

Req: Tell me protein stability index reported for FSLEQQLDDEDDDEEDCPNPEEYN [SRPK2]
Resp: 5.61

Req: Tell me protein stability index reported for DIKRLLVNFMYLQSLLQPKSSSVD [SMG5]
Resp: 2.97

Req: Tell me protein stability index reported for YIKTPLFNPEVAKYLKVPQDPLKF [IQUB]
Resp: 2.42

Req: Tell me protein stability index reported for LPPKVGSFQLFVEGYKDADYWLRR [PI4K2A]
Resp: 2.41
